- experimentalTarget: NUDT14 (Homo sapiens, UniProt O95848)
- Sequence (O95848 1-222): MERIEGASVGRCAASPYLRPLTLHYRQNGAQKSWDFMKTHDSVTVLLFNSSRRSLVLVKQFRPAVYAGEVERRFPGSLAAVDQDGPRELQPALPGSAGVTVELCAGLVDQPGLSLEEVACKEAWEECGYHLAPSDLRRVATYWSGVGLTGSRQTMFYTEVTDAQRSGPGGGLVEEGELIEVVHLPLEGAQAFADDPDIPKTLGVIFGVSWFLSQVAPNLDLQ
- assayInfo: AMP-Glo catalytic assay, NUDT14
- Assay type: biochemical
assayEndpoint: IC50 (nM)
Supply the numeric figure in nM, leaving out any unit text.

[Q] Param item = C=CC(=O)N1CCC[C@@H](n2nc(-c3ccc(Oc4ccccc4)cc3)c3c(N)ncnc32)C1 [Ibrutinib, reference compound] ; retrieve measured IC50.
[A] 974

###

- experimentalTarget: NUDT5 (Homo sapiens, UniProt Q9UKK9)
- assayInfo: AMP-Glo catalytic assay, NUDT5
- measurementSetup: 2 nM NUDT5, ADPr substrate, 20 minutes, mean±SD
assayEndpoint: pIC50
Conceptually, pIC50 converts a concentration in mol/L into minus its log10.

[Q] // returns reported pIC50 for input C=CC(=O)N1CCC[C@@H](n2nc(-c3ccc(Oc4ccccc4)cc3)c3c(N)ncnc32)C1 [Ibrutinib, reference compound]
[A] 6.43

###

- experimentalTarget: NUDT14 (Homo sapiens, UniProt O95848)
- assayInfo: AMP-Glo catalytic assay, NUDT14
- Assay type: biochemical
- measurementSetup: 2 nM NUDT14, ADPr substrate, 1 hour, mean±SD; read-out: NUDT14 IC50
assayEndpoint: pIC50
pIC50 here: minus log base 10 of the concentration, concentration in moles per litre.

// solved cases for pIC50 follow
Cn1nc(-c2ccc(Oc3ccccc3)cc2)c2c(N)ncnc21 ... 6.22
CN1CCC(n2nc(-c3ccc(NC(=O)CCl)cc3)c3c(N)ncnc32)CC1 ... 6.42

[Q] // returns reported pIC50 for input `Nc1ncnc2[nH]nc(-c3ccc(Oc4ccccc4)cc3)c12`
[A] 6.26

[Q] Fill in: pIC50 of `C=CC(=O)N1CCC=C(c2nn(C3CCN(C)CC3)c3ncnc(N)c23)C1` is ___
[A] 5.37
